Each record here notes measured GI50.
Test system: PC-3
assay.summary: NCI tumour cell line growth inhibition, 48 h
Calls of active or inactive are those of the source. Cut-off read from the data, not from the text of the source: active = GI50 up to about 1.1 µM and inactive = higher.

Known results for compounds:
Looking up Fc1ccc(NCn2nc(COc3ccccc3Cl)n(/N=C/c3ccc(-c4ccc(Cl)cc4Cl)o3)c2=S)cc1Cl , I found its GI50 recorded as 38.5 µM (inactive)

Looking up CC(C)c1c(O)c(O)c2c(c1O)C(=O)C(O)=C1C(C)(C)CCC[C@@]12C , I found its GI50 recorded as 2.64 µM (inactive)

***
Looking up OCCN(/N=C\c1ccc2ccccc2c1)C1=NCCN1 , I found its GI50 recorded as 24.9 µM (inactive)

Looking up Cc1cc(C2(O)C=C(C(C)(C)C)C(=O)C(C(C)(C)C)=C2)c(C)cc1C1(O)C=C(C(C)(C)C)C(=O)C(C(C)(C)C)=C1 , I found its GI50 recorded as > 100 µM (inactive)

---

Test system: SF-539
assay.summary: NCI tumour cell line growth inhibition, 48 h
Calls of active or inactive are those of the source. No stated cut-off is given here; in the data, active = GI50 up to about 1.1 µM and inactive = higher.
In this exercise, the only acceptable responses are class 1 = active, class 0 = inactive

What was the test verdict on O=C1c2cccnc2C(=O)c2c1nc1ccccc1c2-c1cncc(-c2c3c(nc4ccccc24)C(=O)c2cccnc2C3=O)c1 ?
class 0

---

Test system: SNB-75
assay.summary: NCI tumour cell line growth inhibition, 48 h
The source made the active and inactive calls. Rule as the data show it: active = GI50 up to about 1.1 µM and inactive = higher.
Each record here notes measured GI50.

Looking up O=[N+]([O-])c1c(O)c2nonc2c2nn(-c3ccccc3)nc12 , I found its GI50 recorded as > 100 µM (inactive)

Looking up COC1/C=C\C=C(/C)C(=O)Nc2cc3nc4ccc(Br)cc4oc-3c(c2=O)CC(C)CC(OC)C(O)C(C)/C=C(\C)C1OC(N)=O (stereo not given) , I found its GI50 recorded as 7.08 µM (inactive)

Looking up COc1cc([N+](=O)[O-])c(S(=O)(=O)[O-])cc1-[n+]1nc(C(=O)Nc2ccccc2)nn1-c1ccc([N+](=O)[O-])c(S(=O)(=O)O)c1 , I found its GI50 recorded as > 100 µM (inactive)

Looking up Cn1ccnc1C(c1nccn1C)C(C)(C)[N+](=O)[O-] , I found its GI50 recorded as > 100 µM (inactive)

Looking up CC(C)(C)N/N=C(\C(=O)Nc1cccc(Cl)c1)C1C(=O)Nc2ccccc2[S+]1[O-] (stereo not given) , I found its GI50 recorded as > 100 µM (inactive)

---

System: T47D
assay.summary: NCI tumour cell line growth inhibition, 48 h
Activity calls are given as the source filed them. No stated cut-off is given here; in the data, active = GI50 up to about 1.1 µM and inactive = higher.
Each record here notes measured GI50.

Value sought: GI50, system T47D, item COc1cc2c(c(N)c1OC)C(=O)/C(=C/c1cc(C)c(O)c(C)c1)C2 . Result: > 100 µM (inactive)

***
Value sought: GI50, system T47D, item Oc1cc(-c2ccc(F)cc2)nc2ncc(Cl)cc12 . Result: 48.4 µM (inactive)

Value sought: GI50, system T47D, item CCOC(=O)c1nc2ccccc2nc1Oc1ccc(C(=O)OC)cc1 . Result: > 100 µM (inactive)

Value sought: GI50, system T47D, item CC(C)(C)c1ccc(-c2nnc(-c3cc(C#N)cc(-c4nnc(-c5ccc(C(C)(C)C)cc5)o4)c3)o2)cc1 . Result: > 100 µM (inactive)

Value sought: GI50, system T47D, item O=C(O)CC1NC(/C(=C/c2ccccc2O)NC(=O)c2ccccc2)OC1=O (stereo not given) . Result: 11.7 µM (inactive)

Value sought: GI50, system T47D, item Cc1ccc(C2(N3CCCC3)OC(C)(C)c3cccc4cccc2c34)cc1 (stereo not given) . Result: 16.3 µM (inactive)

Value sought: GI50, system T47D, item COc1cc(C2c3cc4c(cc3[C@@H](Nc3ccccc3)C3COC[C@H]23)OCO4)cc(OC)c1O (stereo not given in full) . Result: 1.19 µM (inactive)
